target: UniProt P21802; assay: FGFR Enzymatic Assay, FGFR2 un-phosphorylated; conditions: read-out: FGFR2 (UP) IC50; un-phosphorylated enzyme, ATP near or below Km
Sequence (P21802 22-821): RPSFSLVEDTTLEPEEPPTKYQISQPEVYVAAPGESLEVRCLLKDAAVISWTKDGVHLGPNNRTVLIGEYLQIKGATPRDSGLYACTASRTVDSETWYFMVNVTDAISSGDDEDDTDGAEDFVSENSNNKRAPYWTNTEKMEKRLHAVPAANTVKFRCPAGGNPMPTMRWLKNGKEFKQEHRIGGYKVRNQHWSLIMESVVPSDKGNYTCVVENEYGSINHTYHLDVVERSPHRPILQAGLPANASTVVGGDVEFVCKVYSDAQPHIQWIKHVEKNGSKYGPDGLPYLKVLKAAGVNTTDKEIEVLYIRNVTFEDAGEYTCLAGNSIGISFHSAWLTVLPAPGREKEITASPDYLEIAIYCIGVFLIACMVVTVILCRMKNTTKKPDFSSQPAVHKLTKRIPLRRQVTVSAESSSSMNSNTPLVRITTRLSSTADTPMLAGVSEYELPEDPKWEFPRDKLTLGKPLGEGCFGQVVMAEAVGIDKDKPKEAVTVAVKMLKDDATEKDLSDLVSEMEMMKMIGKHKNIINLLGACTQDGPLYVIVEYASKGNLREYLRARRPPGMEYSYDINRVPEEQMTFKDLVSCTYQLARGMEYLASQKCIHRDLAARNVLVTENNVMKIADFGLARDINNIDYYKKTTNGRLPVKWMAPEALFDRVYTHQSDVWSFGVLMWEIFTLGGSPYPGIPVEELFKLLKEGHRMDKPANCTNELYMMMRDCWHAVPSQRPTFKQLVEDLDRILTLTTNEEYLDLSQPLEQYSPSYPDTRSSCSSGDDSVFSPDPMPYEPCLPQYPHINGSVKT

compound: CN(C)C(=O)c1ccc(-n2cc(-c3n[nH]c4cnc(N5C6CCC5C(=O)N(C)C6)nc34)cn2)cc1 (stereo not shown)
IC50: < 100 nM
//
compound: C[C@@H]1CN(c2ccc(-c3n[nH]c4cnc(N5[C@@H]6CC[C@H]5CN(C(=O)N5CCCC5)C6)nc34)cn2)CCN1
IC50: > 2000 nM
//
compound: CN1CC2CCC(C1=O)N2c1ncc2[nH]nc(-c3cnn(C)c3)c2n1 (stereo not shown)
IC50: < 100 nM
//
compound: Cc1cc(-n2cc(-c3n[nH]c4cnc(N5C6CCC5C(=O)N(C)C6)nc34)cn2)ccc1C#N (stereo not shown)
IC50: < 100 nM
//
compound: CN1CC2CCC(C1=O)N2c1ncc2[nH]nc(-c3cnn(-c4ccncc4)c3)c2n1 (stereo not shown)
IC50: < 100 nM
//
compound: COC(=O)N1C[C@@H](C)N(c2ncc3[nH]nc(-c4ccc(N5CCN[C@H](C)C5)nc4)c3n2)[C@@H](C)C1
IC50: < 100 nM
//
compound: C[C@@H]1CN(c2ccc(-c3n[nH]c4cnc(N5C[C@@H]6C[C@H]5CN6C(=O)N5CCCC5)nc34)cn2)CCN1
IC50: > 2000 nM
